Attribution: patent US12582683B2

target: HLA-A*02:01 (Homo sapiens, UniProt P04439, D140Y/D185E/D98H/E176V/E277Q/G131W/G231S/I119V/I121R/I166T/I218V/L300P/L318F/N151K/N90K/P208A/P217A/Q86G/Q94H/R138H/R169H/T345S); assay: In vitro binding of neoantigens to class I MHC (UV peptide exchange, HLA class I ELISA); conditions: 100% = same binding affinity as positive control peptide
PROPERTY: Exchange rate with Pos peptide, HLA-A*02:01 (%)

| RESIDUE_SEQUENCE | EXPERIMENTAL_VALUE |
| --- | --- |
| YEAGMTLGGKILFFLFLLLPLSPFSLIF (listed as Homo sapiens) [Neoantigen P87, AR-Intron] | 64 |
| MMAEHSVHVPKILSGK (MMAEIISVHVPKILSGK; listed as Homo sapiens) [Neoantigen P58, AR (Q903H)] | 11.8 |
| PKSEVRAKCKFSILNAK (listed as Homo sapiens) [Neoantigen P56, SPOP (F102C)] | 8.4 |
| DSSGNLLERNSFEVRV (listed as Homo sapiens) [Neoantigen P73, TP53 (G266E)] | 89.2 |
| SLYHREKQLIAMDSAI (listed as Homo sapiens) [Neoantigen P22, 5LC45A3-ELK4] | 46.9 |
| MFENGCYLGRQKRFKCE (listed as Homo sapiens) [Neoantigen P61, FOXAl.p.R261G] | 5.8 |
| CYLRRQKRLKCEKQPGA (listed as Homo sapiens) [Neoantigen P60, FOXA1.p.F266L] | 7.9 |
